Answer each item with its documented TGI.
# Tested on: OVCAR-4 ovarian
# MEASUREMENT_PROTOCOL: NCI tumour cell line growth inhibition, 48 h

{"columns": ["COMPOUND", "SUBJECT_OF_TEST", "TGI"],
 "data": [
  ["O=C1NC(=S)NC(=O)C1=C/C=C/c1ccc([N+](=O)[O-])cc1", "OVCAR-4 ovarian", "36.1 µM"],
  ["CC(C)CCCC(C)[C@H]1CC[C@H]2N=C(NCc3ccccc3)CCC[C@]12C (stereo partly specified)", "OVCAR-4 ovarian", "8.75 µM"],
  ["C=C1C(=O)O[C@H]2[C@H]1CC/C(COC(=O)NCCCCCCCCNC(=O)OC/C1=C/CC[C@@]3(C)O[C@H]3[C@H]3OC(=O)C(=C)[C@@H]3CC1)=C\\CC[C@@]1(C)O[C@@H]21", "OVCAR-4 ovarian", "1.86 µM"],
  ["Cc1cc(=O)oc2cc(OC/C=C3\\CCC(=O)O3)ccc12", "OVCAR-4 ovarian", "37.4 µM"],
  ["O=[N+]([O-])C(=C/c1cccs1)/C(=C\\c1cccs1)[N+](=O)[O-]", "OVCAR-4 ovarian", "7.41 µM"],
  ["Cc1nnc(Sc2nc(C#N)c(C#N)nc2Sc2nnc(C)s2)s1", "OVCAR-4 ovarian", "> 80.1 µM"],
  ["CN(C)CCOC(=O)Nc1nc2ccc(Sc3ccccc3)cc2[nH]1", "OVCAR-4 ovarian", "> 100 µM"],
  ["CCOC(=O)C1(Br)S(=O)(=O)OCCOS1(=O)=O", "OVCAR-4 ovarian", "> 100 µM"]
]}

For each listed entry, give its TGI.
1. NC(=O)C(=CNC(=S)Nc1cccc(C(F)(F)F)c1)C(N)=O
2. Clc1c2ccccc2nc2c1[nH]c1ccccc12
3. CN(C)CCNC(=O)NC[C@H]1CC[C@@H]2[C@H](O1)c1cc(C(F)(F)F)ccc1N[C@H]2c1ccccc1

1: > 100 µM; 2: > 100 µM; 3: 22.2 µM

For each listed entry, give its TGI.
1. O=[N+]([O-])c1cc2c([N+](=O)[O-])cccc2o1
2. O=Nc1c(O)cc(Nc2cccnc2)c2ccccc12
3. C=CC1(C)OC2(CCN(C(=O)OCC)CC2)OC1C (stereo unspecified)

1. 3.63 µM
2. > 100 µM
3. > 100 µM

For each listed entry, give its TGI.
1. CCCCCCCCC/C=C1/CC(CO)(COC(=O)c2ccccc2)OC1=O (stereo unspecified)
2. c1ccc([P+](CCCCCC[P+](c2ccccc2)(c2ccccc2)c2ccccc2)(c2ccccc2)c2ccccc2)cc1
3. O=C1CCCc2ccc3c(c21)CC1(Cc2ccccc2C1)C3
4. COc1cccc(/C=C\c2ccc(O)cc2)c1
5. CCCCCCCCCCCCCB(O)O

26.5 µM
> 100 µM
98.8 µM
> 100 µM
> 100 µM

For each listed entry, give its TGI.
1. COC(=O)[C@]12CC[C@@H](C)[C@H](C)[C@@H]1C1=CC[C@@H]3[C@@]4(C)C(C=O)=C[C@@](C)(COC(=O)/C=C/c5ccccc5)[C@@H]4[C@H](O)C[C@@]3(C)[C@]1(C)CC2
2. CCO/C(Cc1ccc(Cl)cc1)=N/NC(N)=S

1: > 100 µM; 2: > 100 µM

The values you see were collected from PubChem BioAssay (NCI).
